# ASSAY_SETUP: in sec-butanol, 283.15 K
VALUE_TYPE: solubility (mole fraction)

>>> test_value("CC(=O)N[C@@H](Cc1ccc(O)cc1)C(=O)O")
0.08

----------
# ASSAY_SETUP: in isopentanol, 288.15 K
VALUE_TYPE: solubility (mole fraction)

>>> test_value("CC(=O)N[C@@H](Cc1ccc(O)cc1)C(=O)O")
0.0394

----------
# ASSAY_SETUP: in isobutanol, 303.15 K
VALUE_TYPE: solubility (mole fraction)

>>> test_value("CC(=O)N[C@@H](Cc1ccc(O)cc1)C(=O)O")
0.06

----------
# ASSAY_SETUP: in water, 293.15 K
VALUE_TYPE: solubility (mole fraction)

>>> test_value("CC(=O)N[C@@H](Cc1ccc(O)cc1)C(=O)O")
0.0115

Taken from BigSolDB 2.1.
